Target: Organic anion transporter 3 (Homo sapiens)
Sequence (Q8TCC7 whole entry): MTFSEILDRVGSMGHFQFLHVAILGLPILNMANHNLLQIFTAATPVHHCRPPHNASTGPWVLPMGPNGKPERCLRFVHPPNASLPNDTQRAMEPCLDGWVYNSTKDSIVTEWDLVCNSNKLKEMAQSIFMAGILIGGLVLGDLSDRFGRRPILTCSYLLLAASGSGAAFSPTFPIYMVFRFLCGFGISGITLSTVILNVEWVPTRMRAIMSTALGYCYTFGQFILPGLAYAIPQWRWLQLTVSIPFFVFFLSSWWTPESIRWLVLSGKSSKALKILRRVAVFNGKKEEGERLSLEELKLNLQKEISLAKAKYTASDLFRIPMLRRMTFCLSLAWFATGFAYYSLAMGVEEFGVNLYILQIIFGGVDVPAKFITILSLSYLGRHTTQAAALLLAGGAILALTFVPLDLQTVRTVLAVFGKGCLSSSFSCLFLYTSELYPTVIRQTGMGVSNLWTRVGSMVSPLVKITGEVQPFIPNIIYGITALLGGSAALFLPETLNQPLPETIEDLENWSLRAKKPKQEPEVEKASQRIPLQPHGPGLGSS
Assay: TP_TRANSPORTER: inhibition of Estrone sulfate uptake in OAT3-expressing S2 cells
Quantity Measured: Ki (µM)

Structure String: Cc1nnc(SCC2=C(C(=O)O)N3C(=O)[C@@H](NC(=O)Cn4cnnn4)[C@H]3SC2)s1
Quantity Measured: Ki
U: µM
Result Number: 550

(a) Cn1nnnc1SCC1=C(C(=O)O)N2C(=O)[C@@H](NC(=O)[C@H](O)c3ccccc3)[C@H]2SC1
(b) CO/N=C(\C(=O)N[C@@H]1C(=O)N2C(C(=O)O)=C(COC(C)=O)CS[C@H]12)c1csc(N)n1
Incoming: For this pair, a and b , which shows a numerically higher Ki? Give the label under which the chosen entry appears.
Outgoing: b

These data points were gathered from ChEMBL document CHEMBL2074220.
